- EXPERIMENTAL_SYSTEM: Histamine H1 receptor (Homo sapiens)
- Sequence (P35367 whole entry): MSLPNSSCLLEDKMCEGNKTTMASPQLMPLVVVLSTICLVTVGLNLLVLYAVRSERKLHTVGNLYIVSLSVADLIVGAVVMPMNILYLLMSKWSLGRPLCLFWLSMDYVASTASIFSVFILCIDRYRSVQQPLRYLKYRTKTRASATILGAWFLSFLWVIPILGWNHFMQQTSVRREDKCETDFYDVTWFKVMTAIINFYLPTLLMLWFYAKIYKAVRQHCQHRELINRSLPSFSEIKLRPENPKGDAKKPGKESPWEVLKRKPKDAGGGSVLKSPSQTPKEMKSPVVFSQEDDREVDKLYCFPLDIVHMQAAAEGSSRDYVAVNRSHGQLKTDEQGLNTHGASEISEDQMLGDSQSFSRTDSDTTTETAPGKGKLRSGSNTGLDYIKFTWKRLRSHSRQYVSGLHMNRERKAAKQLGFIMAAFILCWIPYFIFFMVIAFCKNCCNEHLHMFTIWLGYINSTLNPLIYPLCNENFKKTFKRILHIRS
- METHOD: Antagonistic activity against histamine H1 receptor
MEASURED_METRIC: IC50 (nM)
Report as a plain number; the unit nM is understood.

Request: What measured IC50 is associated with COc1ccc(C2(CCN3CCC(C(=O)c4nc5ccccc5n4Cc4ccccn4)CC3)CCN(C(=O)c3cc(OC)c(OC)c(OC)c3)C2)cc1 (centres undefined) on Histamine H1 receptor (Homo sapiens)?
Result: 501

Request: What measured IC50 is associated with CCOc1cc(C(=O)N2CCC(CCN3CCC(C(=O)c4nc5ccccc5n4Cc4ccc(F)cc4)CC3)(c3ccc(OC)c(OC)c3)C2)cc(OCC)c1OCC (centres undefined) on Histamine H1 receptor (Homo sapiens)?
Result: 158

Request: What measured IC50 is associated with COC(=O)c1ccccc1OCCCn1c(C(=O)C2CCN(CCC3(c4ccccc4)CCN(C(=O)c4cc(OC)c(OC)c(OC)c4)C3)CC2)nc2ccccc21 (centres undefined) on Histamine H1 receptor (Homo sapiens)?
Result: 1000

Request: What measured IC50 is associated with CCOCCn1c(C(=O)C2CCN(CCC3(c4ccc(Cl)c(Cl)c4)CCN(C(=O)c4cc(OC)c(OC)c(OC)c4)C3)CC2)nc2ccccc21 (centres undefined) on Histamine H1 receptor (Homo sapiens)?
Result: 339

Cited source for all entries: ChEMBL document CHEMBL1129219
